Recorded MTD at 14 day for the following compounds
- experimental-protocol: Determination of the maximum tolerated dose (MTD)
- test-conditions: B6D2F1/Jico, mouse, in vivo, ip; single intraperitoneal administration, doses 2.5 to 160 mg/kg, survival over 14 days

Example cases with answers are listed next.
[[record]]
compound = "COc1ccc(-c2cn(C)c3cc(OC)cc(N4CCCCC4)c3c2=O)cc1 [CRL8425]"
quantity = "MTD at 14 day"
recorded_value = "> 160 mg/kg"

[[record]]
compound = "COc1ccc(-c2c[nH]c3c(OC)ccc(O)c3c2=O)cc1 [CRL8391]"
quantity = "MTD at 14 day"
recorded_value = "> 160 mg/kg"


Looking up COc1ccc(-c2cn(CC#N)c3cc(OC)cc(OC)c3c2=O)cc1 [CRL8372] , I found its MTD at 14 day recorded as > 160 mg/kg

Input CC(=O)Oc1ccc(-c2cn(C)c3c(OC(C)=O)ccc(OC(C)=O)c3c2=O)cc1 [CRL8460] . Output MTD at 14 day: > 160 mg/kg

So, COc1ccc(-c2cn(C)c3c(OC)ccc(-c4ccccc4)c3c2=O)cc1 [CRL8405] ? Its MTD at 14 day was > 160 mg/kg

Reported MTD at 14 day ( COc1ccc(-c2cn(C)c3cc(OC)cc(OC)c3c2=O)cc1 [CRL8340] ) = > 160 mg/kg

// field: MTD at 14 day; key: COc1ccc(-c2cn(CCN(C)C)c3cc(OC)cc(OC)c3c2=O)cc1 [CRL8350] ; value = > 160 mg/kg

MTD at 14 day reported for this compound COc1ccc(-c2c[nH]c3cc(OC)c(OC)cc3c2=O)cc1 [CRL8354] : > 160 mg/kg

Value of measured MTD at 14 day for the entry CCOC(=O)CCn1cc(-c2ccc(OC)cc2)c(=O)c2ccc(OC)cc21 [CRL8468] : > 160 mg/kg

====

- Tested on: SW1088
- experimental-protocol: MTT test, cytotoxic activity on non-clonogenic cell lines
- Format: cell-based
- test-conditions: Homo sapiens, 10^−5 M, 72 hours of incubation, control condition = 100%, mean value, read-out: mean optical density as percentage of control, SW1088
quantity: viability at 10 µM (%)
Write the value in % as a bare number.

The cases that follow already have their viability at 10 µM on record.
[[record]]
molecule = "COc1ccc(-c2cn(CCN(C)C)c3cc(OC)cc(OC)c3c2=O)cc1"
unit_annotation = "%"
recorded_value = 101

[[record]]
molecule = "CCOC(=O)CCn1cc(-c2ccc(OC)cc2)c(=O)c2c(OC)cc(OC)cc21"
unit_annotation = "%"
recorded_value = 72.1

[[record]]
molecule = "COc1ccc2c(c1)c(=O)c(-c1ccccc1)cn2C"
unit_annotation = "%"
recorded_value = 98.3

[[record]]
molecule = "COc1ccc(-c2cn(C)c3cc(OC)cc(N4CCCCC4)c3c2=O)cc1"
unit_annotation = "%"
recorded_value = 85.4


The measured viability at 10 µM that `COc1ccc(-c2c[nH]c3c(OC)cccc3c2=O)cc1` showed for SW1088 is 96.2

Tested on SW1088: `COc1ccc(-c2cnc3c(OC)ccc(OC)c3c2OCCN(C)C)cc1` . Observed viability at 10 µM: 99.4

Reported viability at 10 µM (SW1088) for entry `COc1ccc(-c2cn(CC#N)c3c(OC)ccc(OC)c3c2=O)cc1` is 83.7

Entry `COc1ccc(OC)c2c1c(=O)c(-c1ccccc1)cn2C` : viability at 10 µM on SW1088 = 75.9

Known value: SW1088 viability at 10 µM of the molecule `CCc1cc(OC)cc2c1c(=O)c(-c1ccc(OC)cc1)cn2C` equals 82.8

The molecule `COc1ccc(-c2cn(CCCC#N)c3c(OC)ccc(OC)c3c2=O)cc1` on SW1088: viability at 10 µM was 51

`COc1ccc(-c2cn(CCN(C)C)c3c(OC)ccc(OC)c3c2=O)cc1` on SW1088 gives viability at 10 µM = 118

With SW1088 as the test system, `COc1ccc(-c2cn(CCCN(C)C)c3cc(OC)cc(OC)c3c2=O)cc1` showed viability at 10 µM of 69.6
